Tested on: MDA-MB-231 cells
experimentNotes: Cytotoxicity assay (CellTiter-Glo 2.0) on MDA-MB-231 cells; note: test concentration or dose not given here
Format: cell-based, Human
testContext: incubation 3 days

{"columns": ["smilesRepr", "Cytotoxicity"],
 "data": [
  ["CSc1cc(Oc2ccnc3c2CCC(=O)N3)ccc1NC(=O)Nc1cc(C(C)(C)C)nn1-c1cccc(CN(C)C)c1", "+++ (cytotoxicity ≥ 85%)"],
  ["CSc1cc(Oc2ccnc3c2CCC(=O)N3)ccc1NC(=O)Nc1cc(C(C)(C)C)nn1-c1ccc(CN(C)C)cc1", "+++ (cytotoxicity ≥ 85%)"],
  ["CN(C)Cc1cccc(-n2nc(C(C)(C)C)cc2NC(=O)Nc2ccc(Oc3ccnc4c3CCC(=O)N4)cc2C(F)(F)F)c1", "+++ (cytotoxicity ≥ 85%)"]
]}

---

System: RD cells
experimentNotes: Cytotoxicity assay (CellTiter-Glo 2.0) on RD cells; for Cytotoxicity: test concentration or dose not given here
Assay type: cell-based, Human
testContext: 4 day-treatment

{"columns": ["smilesRepr", "assayTarget", "Cytotoxicity"],
 "data": [
  ["CSc1cc(Oc2ccnc3c2CCC(=O)N3)ccc1NC(=O)Nc1cc(C(C)(C)C)nn1-c1cccc(CN(C)C)c1", "RD cells", "+++ (cytotoxicity ≥ 85%)"],
  ["CSc1cc(Oc2ccnc3c2OCC(=O)N3)ccc1NC(=O)Nc1cc(C(C)(C)C)nn1-c1ccc(CN2CCN(C)CC2)cc1", "RD cells", "+++ (cytotoxicity ≥ 85%)"]
]}

---

Tested on: MDA-MB-231 cells
experimentNotes: Cytotoxicity assay (CellTiter-Glo 2.0) on MDA-MB-231 cells; note: test concentration or dose not given here
Format: cell-based, Human
testContext: incubation 3 days
parameter: Cytotoxicity

{"columns": ["compound", "parameter", "assayResult"],
 "data": [
  ["CSc1cc(Oc2ccnc3c2OCC(=O)N3)ccc1NC(=O)Nc1cc(C(C)(C)C)nn1-c1cccc(CN2CCOCC2)c1 [Compound 035]", "Cytotoxicity", "+++ (cytotoxicity ≥ 85%)"],
  ["CSc1cc(Oc2ccnc3c2OCC(=O)N3)ccc1NC(=O)Nc1cc(C(C)(C)C)nn1-c1ccc(CN2CCN(C)CC2)cc1 [Compound 054]", "Cytotoxicity", "+++ (cytotoxicity ≥ 85%)"]
]}

---

Test system: RD cells
experimentNotes: Cytotoxicity assay (CellTiter-Glo 2.0) on RD cells; for Cytotoxicity: test concentration or dose not given here
Assay type: cell-based, Human
testContext: Homo sapiens, 48 h, 2 day-treatment
Quick reference for IC50 among some molecules

Take a look at these entries with their results.
{"columns": ["molecule", "IC50"],
 "data": [
  ["CC(C)(C)c1cc(NC(=O)Nc2ccc(Oc3ccnc4c3OCC(=O)N4)cc2C(F)(F)F)n(-c2ccc(CN3CCOCC3)cc2)n1 [Compound 043]", "≥ 10 µM"],
  ["CC(C)(C)c1coc(NC(=O)Nc2ccc(Oc3ccnc4c3CCC(=O)N4)cc2C(F)(F)F)n1 [Compound 036]", "1 to 5 µM"],
  ["CSc1cc(Oc2ccnc3c2OCC(=O)N3)ccc1NC(=O)Nc1cc(C(C)(C)C)on1 [Compound 021]", "1 to 5 µM"]
]}

Measured IC50, Cc1ccc(-n2nc(C(C)(C)C)cc2NC(=O)Nc2ccc(Oc3ccnc4c3CCC(=O)N4)cc2C(F)(F)F)cn1 [Compound 017] : 1 to 5 µM

Quick note, IC50 for CSc1cc(Oc2ccnc3c2OCC(=O)N3)ccc1NC(=O)Nc1cc(C(C)(C)C)nn1-c1ccc(CCN(C)C)cc1 [Compound 051] landed at 1 to 5 µM

Field IC50 (entry Cc1ccc(-n2nc(C(C)(C)C)cc2NC(=O)Nc2ccc(Oc3ccnc4c3CCC(=O)N4)cc2C(F)(F)F)cc1 [Compound 010] ) reads 5 to 10 µM

Value of IC50 reported for the molecule CSc1cc(Oc2ccnc3c2OCC(=O)N3)ccc1NC(=O)Nc1cc(C(C)(C)C)nn1-c1ccc(CN(C)C)cc1 [Compound 033] is 1 to 5 µM

The recorded IC50 for entry CSc1cc(Oc2ccnc3c2OCC(=O)N3)ccc1NC(=O)Nc1cc(C(C)(C)C)nn1-c1ccc(CN2CCOCC2)cc1 [Compound 038] equals 1 to 5 µM
